system-name: PCSK9 (Homo sapiens)
Construct: biotin (biotinylated); purchased
Sequence (Q8NBP7 153-692): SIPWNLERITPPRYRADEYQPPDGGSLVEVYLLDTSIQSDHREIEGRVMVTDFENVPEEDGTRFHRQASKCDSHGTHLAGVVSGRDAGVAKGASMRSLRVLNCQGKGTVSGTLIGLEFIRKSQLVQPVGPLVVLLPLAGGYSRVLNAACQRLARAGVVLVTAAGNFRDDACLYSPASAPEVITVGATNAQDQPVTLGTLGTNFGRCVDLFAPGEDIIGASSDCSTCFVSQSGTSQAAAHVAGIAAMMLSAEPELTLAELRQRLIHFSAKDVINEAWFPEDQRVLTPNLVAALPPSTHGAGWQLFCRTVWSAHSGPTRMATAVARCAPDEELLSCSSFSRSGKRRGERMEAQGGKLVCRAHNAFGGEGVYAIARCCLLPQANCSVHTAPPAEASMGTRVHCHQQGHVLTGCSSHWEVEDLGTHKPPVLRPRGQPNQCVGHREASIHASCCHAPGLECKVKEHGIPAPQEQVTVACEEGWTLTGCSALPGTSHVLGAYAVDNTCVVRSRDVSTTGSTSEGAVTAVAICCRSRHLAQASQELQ
assay-explanation: PCSK9 Alexa FRET Standard TR-FRET assay
Format: binding
setup-conditions: Ki calculated from IC50 and KD of AF cyclic peptide Reagent A; 0.5 nM PCSK9, 20 nM AF cyclic peptide; read-out: Alexa FRET Stdt TR-FRET
pKi: −log10 of the molar value.
metric-name: pKi

Sample "COc1ccc(C[C@@H]2NC(=O)[C@H]([C@@H](C)O)NC(=O)[C@@H]3[C@@H]4CCN3C(=O)[C@@H]3Cc5cn(c6ccc(F)cc56)CCCCCCN(Cc5ccc(cc5)CCNC(=O)[C@]5(C)CCCN5C2=O)C(=O)CCC(=O)N[C@@H](CNC(=O)CCOCCOCC[N+](C)(C)CCNC(=O)COCCOCCNC(=O)COCCOCCNC(=O)CC[C@H](NC(=O)CCCCCCCCCCCCCCC(=O)O)C(=O)O)C(=O)N[C@H](C)C(=O)N[C@@H](Cc2cccc(c2)CNC(=O)CO4)C(=O)N3)cc1" — what was its pKi?
> 8.90

Field request: pKi | item: "COc1ccc(C[C@@H]2NC(=O)[C@H]([C@@H](C)O)NC(=O)[C@@H]3[C@@H]4CCN3C(=O)[C@@H]3Cc5cn(c6ccc(F)cc56)CCCCCCN(Cc5ccc(cc5)CCNC(=O)[C@]5(C)CCCN5C2=O)C(=O)CCC(=O)N[C@@H](C)C(=O)N[C@H](CNC(=O)COCCOCC[N+](C)(C)CCOCCNC(=O)COCCOCCNC(=O)COCCOCCNC(=O)CC[C@H](NC(=O)CCCCCCCCCCCCCCC(=O)O)C(=O)O)C(=O)N[C@@H](Cc2cccc(c2)CNC(=O)CO4)C(=O)N3)cc1"
> 8.90
